Quick record of pKi values for 5-hydroxytryptamine receptor 6 (Mus musculus, UniProt Q9R1C8).
pKi (log units): -log10 of the concentration in mol/L.

The following compounds have reported results that may help.
> print(dat)
                                   compound  result
1                   Cc1[nH]c2ccc(O)cc2c1CCN    6.40
2  CSc1ccc2c(c1)C(N1CCN(C)CC1)Cc1ccccc1S2 (configuration not stated)    8.70
3        NCCc1c[nH]c2ccc(O)cc12 [[3H]-5-HT]    7.40

INPUT: Fill in: pKi on 5-hydroxytryptamine receptor 6 (Mus musculus, UniProt Q9R1C8), entry CN1CCN(C2=c3ccccc3=Nc3ccc(Cl)cc3N2)CC1
Sequence (Q9R1C8 whole entry): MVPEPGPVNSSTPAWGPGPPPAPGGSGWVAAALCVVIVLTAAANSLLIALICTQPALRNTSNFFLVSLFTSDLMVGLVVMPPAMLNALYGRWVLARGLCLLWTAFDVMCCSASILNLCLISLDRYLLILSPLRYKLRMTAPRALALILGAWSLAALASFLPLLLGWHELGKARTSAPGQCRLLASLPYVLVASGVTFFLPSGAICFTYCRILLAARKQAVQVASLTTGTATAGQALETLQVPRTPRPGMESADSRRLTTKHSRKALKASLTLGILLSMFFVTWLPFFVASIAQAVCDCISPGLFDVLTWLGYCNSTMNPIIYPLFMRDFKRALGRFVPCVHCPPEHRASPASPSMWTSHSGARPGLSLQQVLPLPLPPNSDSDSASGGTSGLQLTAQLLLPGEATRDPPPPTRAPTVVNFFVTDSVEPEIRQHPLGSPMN
OUTPUT: 7.50

INPUT: Fill in: pKi on 5-hydroxytryptamine receptor 6 (Mus musculus, UniProt Q9R1C8), entry CN1CCN2c3ccccc3Cc3ccccc3[C@H]2C1 [MIANSERIN (+)]
OUTPUT: 7.70

INPUT: Fill in: pKi on 5-hydroxytryptamine receptor 6 (Mus musculus, UniProt Q9R1C8), entry CN1CCc2cc(Cl)c(O)cc2[C@@H](c2ccccc2)C1 [SCH 23390,R(+)]
OUTPUT: 5.60

INPUT: Fill in: pKi on 5-hydroxytryptamine receptor 6 (Mus musculus, UniProt Q9R1C8), entry Cn1cc(CCN)c2cc(O)ccc21 [5-HT,omega-N-Me]
OUTPUT: 5.70
